# Tested on: TZM
# TEST: Cytotoxicity against human TZM-bl cells assessed as reduction in viability incubated for 48 hrs by CellTiter-Blue cell viability assay
MEASURED_PARAMETER: CC50 (µM)
Lab book: enter the figure in µM, no units written.

// query Give the measured CC50 for N#Cc1ccc2c(S(=O)(=O)n3nc(Nc4ccc(C#N)c(C#N)c4)nc3N)cccc2c1
// result 27

// query Give the measured CC50 for N#C/C=C/c1ccc2c(S(=O)(=O)n3nc(Nc4ccc(C#N)c(Cl)c4)nc3N)cccc2c1
// result 4.8

// query Give the measured CC50 for N#Cc1ccc(Nc2nc(N)n(S(=O)(=O)c3cccc4cc(C#N)ccc34)n2)cc1
// result 7.8
